assay name: Everolimus blood pharmacokinetics (24-h profile day 15, trough levels) in Chinese patients with advanced solid tumors
Assay type: in vivo, human
condition context: human, whole blood; oral 10 mg/day, n = 12, day 15, blood; mean (% coefficient of variation); read-out: AUC0-τ
value kind: AUC

Answer with the recorded AUC for the compound listed here: CO[C@H]1C[C@@H]2CC[C@@H](C)[C@@](O)(O2)C(=O)C(=O)N2CCCC[C@H]2C(=O)O[C@H]([C@H](C)C[C@@H]2CC[C@@H](OCCO)[C@H](OC)C2)CC(=O)[C@H](C)/C=C(\C)[C@@H](O)[C@@H](OC)C(=O)[C@H](C)C[C@H](C)/C=C/C=C/C=C/1C
589 ng·h/mL

* * *

assay name: Everolimus blood pharmacokinetics (24-h profile day 15, trough levels) in Chinese patients with advanced solid tumors
Type: in vivo, human
condition context: human, whole blood, po, 10 mg/day, oral 10 mg/day, n = 12; read-out: Tmax, median (range)
value kind: Tmax (h)
All answers are understood in h, so give the number only.

Answer with the recorded Tmax for the molecule listed here: CO[C@H]1C[C@@H]2CC[C@@H](C)[C@@](O)(O2)C(=O)C(=O)N2CCCC[C@H]2C(=O)O[C@H]([C@H](C)C[C@@H]2CC[C@@H](OCCO)[C@H](OC)C2)CC(=O)[C@H](C)/C=C(\C)[C@@H](O)[C@@H](OC)C(=O)[C@H](C)C[C@H](C)/C=C/C=C/C=C/1C
2

* * *

assay name: Everolimus blood pharmacokinetics (24-h profile day 15, trough levels) in Chinese patients with advanced solid tumors
Type: in vivo, human
condition context: human, whole blood; oral 5 mg/day, n = 12, day 15, blood; mean (% coefficient of variation)
value kind: Cmax (ng/mL)
All answers are understood in ng/mL, so give the number only.

Answer with the recorded Cmax for the molecule listed here: CO[C@H]1C[C@@H]2CC[C@@H](C)[C@@](O)(O2)C(=O)C(=O)N2CCCC[C@H]2C(=O)O[C@H]([C@H](C)C[C@@H]2CC[C@@H](OCCO)[C@H](OC)C2)CC(=O)[C@H](C)/C=C(\C)[C@@H](O)[C@@H](OC)C(=O)[C@H](C)C[C@H](C)/C=C/C=C/C=C/1C
28.8

* * *

assay name: Everolimus blood pharmacokinetics (24-h profile day 15, trough levels) in Chinese patients with advanced solid tumors
Type: in vivo, human
condition context: human, whole blood; oral 10 mg/day, n = 12, day 15, blood; mean (% coefficient of variation)
Method: Blood samples for everolimus 24-h PK profile were collected on day 15 pre-dose and at 1, 2, 4, 6, 8, and 24 h post-dose; blood samples for everolimus trough concentration were collected pre-dose on days 2, 8, 16, and 22. Everolimus concentration was determined after liquid extraction by a liquid chromatography-mass spectroscopy method with lower limits of quantification for everolimus of 0.3 ng/mL. […]
value kind: Cmax (ng/mL)
All answers are understood in ng/mL, so give the number only.

Answer with the recorded Cmax for the compound listed here: CO[C@H]1C[C@@H]2CC[C@@H](C)[C@@](O)(O2)C(=O)C(=O)N2CCCC[C@H]2C(=O)O[C@H]([C@H](C)C[C@@H]2CC[C@@H](OCCO)[C@H](OC)C2)CC(=O)[C@H](C)/C=C(\C)[C@@H](O)[C@@H](OC)C(=O)[C@H](C)C[C@H](C)/C=C/C=C/C=C/1C [Everolimus, everolimus]
53.8
